Tested on: K562
Assay: NCI tumour cell line growth inhibition, 48 h
Active and inactive are the calls of the source. Rule as the data show it: active = GI50 up to about 1.1 µM and inactive = higher.
Your answer must be one of the following: Yes (active), No (inactive)

[[record]]
compound = "COc1cc2c(cc1OCCCCCOc1cc3c(cc1OC)C(=O)N1CCC[C@H]1C(=O)N3)N=C[C@@H]1CCCN1C2=O"
class_assignment = "Yes"

[[record]]
compound = "Cc1ccc(S(=O)(=O)NNS(C)(=O)=O)cc1"
class_assignment = "No"

[[record]]
compound = "O=C(ON=c1c2ccccc2ccc2ccccc12)c1ccccc1"
class_assignment = "No"

[[record]]
compound = "Cc1nc2ccccc2c(=O)n1NC(=S)Nc1cccc(Cl)c1"
class_assignment = "No"

[[record]]
compound = "O=C(O)C[C@@H](Cl)[C@H](NC(=O)OCc1ccccc1)C(=O)O"
class_assignment = "No"

[[record]]
compound = "COc1cc(C2C3=C(COC3=O)Oc3cc4c(cc32)OCO4)cc(OC)c1O (stereo unspecified)"
class_assignment = "Yes"

[[record]]
compound = "Cc1cnc(-n2c(C)nc3cc(Cl)ccc3c2=O)s1"
class_assignment = "No"

[[record]]
compound = "C=C(Cl)C(=C)CCC(Cl)C(C)(C)Cl (stereo unspecified)"
class_assignment = "No"


-- ask Please let me know the test result on file for `O=[S@@]1Nc2ccc(Br)cc2S1` .
-- reply Yes

-- ask Please let me know the test result on file for `Cc1ccc(S(=O)(=O)NC(=O)NCC(=O)NCC(=O)O)cc1` .
-- reply No

-- ask Please let me know the test result on file for `COc1ccc(N2N=NN(C(C)C)/C2=C(/Cl)c2nnnn2-c2ccc(OC)cc2)cc1` .
-- reply No
